# target: Human BCMA (human) (UniProt Q02223)
# test protocol: SPR, IgG immobilised, huBCMA analyte, 37 C
readout kind: kon (M⁻¹ s⁻¹)
State the answer as a number, implicitly in M⁻¹ s⁻¹.

{"binder": "L3.PY/L1.PH/H3.AQ (antibody, V domains shown, IgG) VH: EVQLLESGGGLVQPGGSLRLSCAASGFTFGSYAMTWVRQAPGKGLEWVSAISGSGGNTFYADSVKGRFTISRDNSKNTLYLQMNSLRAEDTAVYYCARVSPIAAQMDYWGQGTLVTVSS VL: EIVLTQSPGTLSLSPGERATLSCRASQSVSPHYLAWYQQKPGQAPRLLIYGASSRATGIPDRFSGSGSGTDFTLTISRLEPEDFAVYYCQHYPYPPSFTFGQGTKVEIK", "kon [M⁻¹ s⁻¹]": "3.08e+06"}

Turning now to a further record.
State the recorded kon for this entry: L3.PY/L3.KY/H3.YA (antibody, V domains shown, IgG) VH: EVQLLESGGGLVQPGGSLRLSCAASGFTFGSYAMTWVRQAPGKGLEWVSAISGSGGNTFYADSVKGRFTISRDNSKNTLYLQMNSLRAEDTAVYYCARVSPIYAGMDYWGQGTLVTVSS VL: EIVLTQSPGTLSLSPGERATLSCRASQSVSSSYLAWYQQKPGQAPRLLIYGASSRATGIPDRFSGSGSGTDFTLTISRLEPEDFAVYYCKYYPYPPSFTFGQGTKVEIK 3.3e+06
